Molecular target: T1, LigD (wildtype), Mycobacterium tuberculosis (M. tuberculosis, UniProt P9WNV3 1-759)
T1 construct: The His tag is TEV-cleavable; also called wildtype LigD
T1 sequence (P9WNV3 whole entry): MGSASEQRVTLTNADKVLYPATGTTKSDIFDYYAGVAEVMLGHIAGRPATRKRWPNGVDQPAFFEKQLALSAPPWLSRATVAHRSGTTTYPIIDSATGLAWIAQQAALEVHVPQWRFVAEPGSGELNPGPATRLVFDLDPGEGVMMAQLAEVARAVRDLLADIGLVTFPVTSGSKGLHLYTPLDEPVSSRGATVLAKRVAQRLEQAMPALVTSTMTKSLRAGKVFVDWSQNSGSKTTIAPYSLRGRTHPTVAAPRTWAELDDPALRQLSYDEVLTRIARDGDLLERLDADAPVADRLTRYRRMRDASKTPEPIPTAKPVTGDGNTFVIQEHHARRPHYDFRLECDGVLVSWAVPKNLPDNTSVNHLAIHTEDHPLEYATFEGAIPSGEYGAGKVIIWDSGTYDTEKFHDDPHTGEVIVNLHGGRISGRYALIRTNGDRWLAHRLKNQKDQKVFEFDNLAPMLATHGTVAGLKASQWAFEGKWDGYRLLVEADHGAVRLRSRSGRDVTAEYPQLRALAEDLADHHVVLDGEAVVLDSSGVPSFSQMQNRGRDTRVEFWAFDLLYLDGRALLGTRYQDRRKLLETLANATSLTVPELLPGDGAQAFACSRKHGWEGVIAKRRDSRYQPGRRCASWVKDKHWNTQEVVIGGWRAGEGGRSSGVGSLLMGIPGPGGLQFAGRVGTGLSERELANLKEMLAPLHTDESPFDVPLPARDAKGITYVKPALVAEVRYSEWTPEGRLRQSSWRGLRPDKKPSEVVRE
Experiment: BLI; Octet RED96, 37°C, 1000 rpm; biotinylated Ku (25 ug/ml) loaded on streptavidin biosensors; LigD, LIG or POL as analyte (12.5 ug/ml), 300 s association, 300 s dissociation; 1x kinetics buffer (0.1% BSA, 0.02% Tween-20, 0.05% sodium azide in PBS); grouped global fit
Details: both partners purified
property: pKd
Please treat pKd as minus the base-10 logarithm of the molar concentration.

Prompt line: Please report the recorded pKd for Ku S258A (M. tuberculosis) (natural protein, biotinylated with NHS-LC-Biotin for BLI only) MRAIWTGSIAFGLVNVPVKVYSATADHDIRFHQVHAKDNGRIRYKRVCEACGEVVDYRDLARAYESGDGQMVAITDDDIASLPEERSREIEVLEFVPAADVDPMMFDRSYFLEPDSKSSKSYVLLAKTLAETDRMAIVHFTLRNKTRLAALRVKDFGKREVMMVHTLLWPDEIRDPDFPVLDQKVEIKPAELKMAGQVVDSMADDFNPDRYHDTYQEQLQELIDTKLEGGQAFTAEDQPRLLDEPEDVSDLLAKLEAAVKARSKANSNVPTPP .
Response line: 6.59

Prompt line: Give the measured pKd of Ku R262A (M. tuberculosis) (natural protein, biotinylated with NHS-LC-Biotin for BLI only) MRAIWTGSIAFGLVNVPVKVYSATADHDIRFHQVHAKDNGRIRYKRVCEACGEVVDYRDLARAYESGDGQMVAITDDDIASLPEERSREIEVLEFVPAADVDPMMFDRSYFLEPDSKSSKSYVLLAKTLAETDRMAIVHFTLRNKTRLAALRVKDFGKREVMMVHTLLWPDEIRDPDFPVLDQKVEIKPAELKMAGQVVDSMADDFNPDRYHDTYQEQLQELIDTKLEGGQAFTAEDQPRLLDEPEDVSDLLAKLEASVKAASKANSNVPTPP .
Response line: 6.90

Prompt line: Would you kindly share the measured pKd for Ku D247A (M. tuberculosis) (natural protein, biotinylated with NHS-LC-Biotin for BLI only) MRAIWTGSIAFGLVNVPVKVYSATADHDIRFHQVHAKDNGRIRYKRVCEACGEVVDYRDLARAYESGDGQMVAITDDDIASLPEERSREIEVLEFVPAADVDPMMFDRSYFLEPDSKSSKSYVLLAKTLAETDRMAIVHFTLRNKTRLAALRVKDFGKREVMMVHTLLWPDEIRDPDFPVLDQKVEIKPAELKMAGQVVDSMADDFNPDRYHDTYQEQLQELIDTKLEGGQAFTAEDQPRLLDEPEAVSDLLAKLEASVKARSKANSNVPTPP ?
Response line: 6.72

// next entry
Prompt line: Item Ku L251A (M. tuberculosis) (natural protein, biotinylated with NHS-LC-Biotin for BLI only) MRAIWTGSIAFGLVNVPVKVYSATADHDIRFHQVHAKDNGRIRYKRVCEACGEVVDYRDLARAYESGDGQMVAITDDDIASLPEERSREIEVLEFVPAADVDPMMFDRSYFLEPDSKSSKSYVLLAKTLAETDRMAIVHFTLRNKTRLAALRVKDFGKREVMMVHTLLWPDEIRDPDFPVLDQKVEIKPAELKMAGQVVDSMADDFNPDRYHDTYQEQLQELIDTKLEGGQAFTAEDQPRLLDEPEDVSDALAKLEASVKARSKANSNVPTPP has what recorded pKd?
Response line: 6.87
